Recorded melting point for the following compounds

TEST SMILES	MEAS VALUE
O=C(O)c1cccc(-c2noc3c4c(ccc23)OCO4)c1	227 to 229 °C
Cc1ccc(-c2ccc3c(-c4ccc(C(=O)O)cc4)noc3c2)cc1	293 to 299 °C
O=C(O)c1ccc2oc(-c3cccnc3)nc2c1	> 300 °C

Please supply the value of reported melting point for the item `O=C(O)c1cccc(-c2nc3ccccc3o2)c1` 265 to 267 °C

Please supply the value of reported melting point for the item `O=C(O)c1cccc(-c2nc3ccc(Cn4ccnc4)cc3o2)c1` 253 to 255 °C

Please supply the value of reported melting point for the item `CC(C)(C)c1ccc2oc(-c3cccc(C(=O)O)c3)nc2c1` 231 to 233 °C
